Target: T1, RXFP1 receptor (UniProt Q9HBX9 1-757, limits assumed)
T1 sequence (looked up): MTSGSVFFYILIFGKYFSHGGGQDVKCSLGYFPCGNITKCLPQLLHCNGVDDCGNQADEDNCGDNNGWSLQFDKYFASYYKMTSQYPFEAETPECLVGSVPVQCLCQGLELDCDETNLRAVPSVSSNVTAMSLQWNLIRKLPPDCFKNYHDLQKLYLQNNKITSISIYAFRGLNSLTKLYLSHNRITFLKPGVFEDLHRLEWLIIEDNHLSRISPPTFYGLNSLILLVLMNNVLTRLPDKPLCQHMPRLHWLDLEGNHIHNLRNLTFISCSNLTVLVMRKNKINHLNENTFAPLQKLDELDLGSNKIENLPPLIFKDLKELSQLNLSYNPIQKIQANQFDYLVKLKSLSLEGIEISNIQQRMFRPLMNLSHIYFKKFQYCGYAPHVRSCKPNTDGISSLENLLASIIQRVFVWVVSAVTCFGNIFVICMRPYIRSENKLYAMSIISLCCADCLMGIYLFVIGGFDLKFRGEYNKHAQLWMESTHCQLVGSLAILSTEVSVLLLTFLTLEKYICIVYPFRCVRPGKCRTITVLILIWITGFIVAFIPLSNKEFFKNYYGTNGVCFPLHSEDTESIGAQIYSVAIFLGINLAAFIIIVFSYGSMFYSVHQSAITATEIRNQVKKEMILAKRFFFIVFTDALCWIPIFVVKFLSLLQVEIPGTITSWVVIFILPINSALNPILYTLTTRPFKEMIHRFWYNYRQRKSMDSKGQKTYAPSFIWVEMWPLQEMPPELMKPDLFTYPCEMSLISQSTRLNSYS
Experiment: cell-based or functional assay
*1 amine or outer side, *2 acyl side, *3 side chain or, on linkers, in order; H or OH if unused. Primed or numbered codes have the meaning given here. Side-chain parts run from the residue outwards. [ ]: non-standard residue; d: D form. The star is where a group is joined. γGlu = O=C(O)[C@H](CCC(=O)[*:2])N[*:1]; Stearoyl = CCCCCCCCCCCCCCCCCC(=O)*; Palmitoyl = CCCCCCCCCCCCCCCC(=O)*; αMeK = C[C@](N)(CCCCN)C(=O)O; Nle = CCCC[C@H](N)C(=O)O; PEG2′ = PEG2 spacer unit; PEG2″ = not defined here; Aib = CC(C)(N)C(=O)O
Recorded EMax, OVCAR 5 cells (cAMP), one value per entry.

Worked examples, 3 binders total:
Ac-LEGREKVRAK(Ac)I[Aib][Aib]EGQSTFS[αMeK]RAK(Ac)[PEG2′][PEG2′][PEG2′][PEG2′][γGlu][γGlu]K([γGlu-γGlu-Palmitoyl])-NH2 [peptide of SEQ ID NO: 185]; 100%
Ac-LEGREKVRAQI[Aib][Aib]EG[Nle]STWS[Aib]RKK([PEG2′-γGlu-Palmitoyl])-NH2 [peptide of SEQ ID NO: 53]; 97%
Ac-LEGREKVRAK(Ac)I[Aib][Aib]EG[Nle]STWS[Aib]RKK(Ac)[PEG2′][PEG2′][PEG2′]K([γGlu-γGlu-γGlu-Stearoyl])-NH2 [peptide of SEQ ID NO: 14]; 88%

Query: Entry Ac-LEGREKVRAK(Ac)I[Aib][Aib]EG[Nle]STFS[αMeK]RKK(Ac)[PEG2″][PEG2″][PEG2″][PEG2″][γGlu][γGlu]K([γGlu-γGlu-Palmitoyl])-NH2 [peptide of SEQ ID NO: 159] : reported EMax, OVCAR 5 cells (cAMP) = ?
Response: 88%
